Every entry's value here was drawn from patent US20230143612A1.

Answer each item with its documented IC50.
target: PD-L1 His protein / PD-1 Fc protein (Homo sapiens, UniProt Q9NZQ7); test: HTRF Assay (PD-1/PD-L1 interaction); details: PD-L1 His 6 nM, PD-1 Fc 6 nM
Sequence (Q9NZQ7 19-238 limits assumed): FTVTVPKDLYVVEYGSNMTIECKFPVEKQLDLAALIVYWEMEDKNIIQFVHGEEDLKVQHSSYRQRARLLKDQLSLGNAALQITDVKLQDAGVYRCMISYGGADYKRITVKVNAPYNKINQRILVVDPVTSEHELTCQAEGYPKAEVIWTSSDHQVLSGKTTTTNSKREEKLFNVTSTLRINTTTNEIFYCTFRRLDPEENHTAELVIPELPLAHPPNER
Please state the figure in nM; there is no need to write the unit.

Req: Recorded IC50 for COc1c(CNC[C@@H]2CCC(=O)N2)ccc2nc(-c3cccc(-c4cccc(-c5ccn6c(=O)c(CNC[C@@H]7CCC(=O)N7)cnc6c5)c4Cl)c3Cl)ccc12 with PD-L1 His protein / PD-1 Fc protein (Homo sapiens, UniProt Q9NZQ7), please?
Resp: 250

Req: Recorded IC50 for COc1nc(-c2cccc(-c3cccc(-c4cc5c(=O)n(C)c(CNC[C@@H]6CCO6)nn5c4)c3Cl)c2Cl)ccc1CNC[C@@H]1CCC(=O)N1 with PD-L1 His protein / PD-1 Fc protein (Homo sapiens, UniProt Q9NZQ7), please?
Resp: 400

Req: Recorded IC50 for COc1nc(-c2cccc(-c3cccc(-c4ccn5c(=O)c(C)c(CNC[C@H](C)O)nc5c4)c3Cl)c2Cl)ccc1CNC[C@@H]1CCC(=O)N1 with PD-L1 His protein / PD-1 Fc protein (Homo sapiens, UniProt Q9NZQ7), please?
Resp: 21

Req: Recorded IC50 for COc1nc(-c2cccc(-c3cccc(-c4ccn5c(=O)c(CNC[C@@H]6CCC(=O)N6)cnc5c4)c3Cl)c2Cl)ccc1C1(CN)CC1 with PD-L1 His protein / PD-1 Fc protein (Homo sapiens, UniProt Q9NZQ7), please?
Resp: 150
